These data points were gathered from PubChem BioAssay (NCATS).

system: CP329; assay: qHTS profiling for inhibitors of Plasmodium falciparum proliferation (AID 504749); also: nearly all actives have a fitted effect of over 60% in size; conditions: P. falciparum in erythrocytes, SYBR Green DNA, 72 h; series mostly up to 28.7 µM
Results filed as inconclusive are left out. Active and inactive are the calls of the source. Calls follow the shape of the dose curve; as a rule, active = well fitted inhibition curve with a large enough effect; inconclusive = small, poorly fitted or top-dose-only effect; inactive = flat fitted curve, though single readings scatter.
outcomeMeasure: outcome

Some compounds with known outcome results, for comparison:
CCN1CCC[C@H]1CNC(=O)c1c(O)c(Cl)cc(Cl)c1OC: inactive
CN=C(NC#N)NCCSCc1nc[nH]c1C: inactive
C[N+](C)(C)CCOC(N)=O: inactive
COC(=O)[C@@H](N)Cc1ccc(O)c(O)c1: inactive

State the recorded outcome for every item in the following list.
1. OC(CCN1CCCCC1)(c1ccccc1)C1CCCCC1 (stereo not drawn)
2. CN(C)CCCN1c2ccccc2Sc2ccc(C(F)(F)F)cc21

1. inactive
2. inactive
